Reference source: patent US20260193315A1

Molecular target: 4-1BB (coated on ELISA plate) (UniProt Q07011 24-186, limits assumed)
Test: ELISA, binding OD450 / expression OD450
The entries below come with measured Binding/Expression ratio values attached.
Keep the answer to the number alone.

Answered cases to consult:
# BINDER, OBSERVED VALUE
records = [
    ("4C2 (ligand, also called 4-1BBL variant 4C2 (phagemid clone, bacterial supernatant)) 4-1BBL variant: ACPWAVSGARASPGSAASPRLREGPELSPDDPAGLLDLRQGMFAQLVAQNVLLIDGPLSWYPDPGLAGVSLTGGLSYKEDTKELVVAKAGVYYVFFQLELRRVVAGRGSGSVSLALHLQPLRSAAGAAALALTVDLPPASSEARNSAFGFQGRLLHLSAGQRLGVHLHTEARARHAWQFTQGATVLGLFRVTPEIPAGLPSPRSE", 0.67),
    ("5D9 (ligand, also called 4-1BBL variant 5D9 (phagemid clone, bacterial supernatant)) 4-1BBL variant: ACPWAVSGARASPGSAASPRLREGPELSPDDPAGLLDLRQGMFAQLVAQNVLLIDGPLSFYSDPGLAGVSLTGGLSYKEDTKELVVAKAGVYYVFFQLELRRVVAGTGSGSVSLALHLQPLRSAAGAAALALTVDLPPASSEARNSAFGFQGRLLHLSAGQRLGVHLHTEARARHAWQMTQGATVLGLFRVTPEIPAGLPSPRSE", 1.75),
]

API: the following record is the query input.
Report measured Binding/Expression ratio; entry is 4E10 (ligand, also called 4-1BBL variant 4E10 (phagemid clone, bacterial supernatant)) 4-1BBL variant: ACPWAVSGARASPGSAASPRLREGPELSPDDPAGLLDLRQGMFAQLVAQNVLLIDGPLSWYPDPGLAGVSLTGGLSYKEDTKELVVAKAGVYYVFFQLELRRVVAREGSGSVSLALHLQPLRSAAGAAALALTVDLPPASSEARNSAFGFQGRLLHLSAGQRLGVHLHTEARARHAMQLTQGATVLGLFRVTPEIPAGLPSPRSE
1.04
